# STUDY_TARGET: Hepatocyte nuclear factor 4-alpha (Homo sapiens)
# PROCEDURE_TEXT: HNF4-alpha DNA association modulation – biochemical, fluorescence polarization, FITC-DNA, primary screen (AID 1224865)
# CONDITION_SUMMARY: HNF4a-FITC DNA binding, 1 h, at 10 µM, hits give high values
About 1,100 (0.31%) of roughly 360,000 compounds were called active. This is one part of a sample in which actives are shown more often than they occur.
Below, each entry is listed with its recorded activity change.
Answer format: numeric, % implied, no suffix.

Some compounds with recorded activity change:
| SMILES_TEXT | activity change, % |
| --- | --- |
| COc1ccccc1N=Nc1c(O)[nH]c(=S)[nH]c1=O | 68.8 |
| CCOCCc1c(O)[nH]c(=S)[nH]c1=O | -0.41 |

The measured activity change associated with `C=Cn1ccnc1P(=S)(c1cc(N(CC)CC)ns1)c1nccn1C=C` reads -0.17

Cited source for all entries: PubChem BioAssay AID1224865
